Hello, the source for this data is patent US11865110B2, in case you need it.

Assay: Rat pharmacokinetics
Type: in vivo
Settings: Sprague-Dawley, plasma, SD rats, PO 5 mg/kg, Formulation A (90% Kolliphor HS15, 10% ethanol)
experimental.endpoint: Cmax (ng/mL)

>>> reported("CC(C)(C)C(=O)n1nc(-c2cccn(CCC(=O)O)c2=O)cc1NCc1ccc(Cl)s1")
240

I: CC(C)(C)C(=O)n1nc(-c2cccn(CC(=O)O)c2=O)cc1NCc1ccc(Cl)s1
II: O=C(O)CCn1cccc(-c2cc(NCc3ccc(Cl)s3)n(C(=O)c3ccoc3)n2)c1=O
# returns the entry with the larger Cmax; inputs I and II Select an item and report its label.
I
(I: 260 ng/mL, II: 19 ng/mL)
